Where do these numbers come from? They come from PubChem BioAssay (NCI).

growth inhibition values by entry
- Protocol text: NCI Yeast Anticancer Drug Screen. Data for the mlh1 rad18 strain (AID 175)
- Condition details: S. cerevisiae mlh1 rad18 strain growth inhibition, active compounds read high; at 50.0 µM unless noted
About 79,000 compounds went through this panel and 15% of them were active in at least one assay; those are over-represented in the sample as a whole.
Express your answer in %, writing the number without its unit.

Request: Request the reported growth inhibition associated with COC(=O)c1ccc(SCCC(=O)CN2C(=O)c3ccccc3C2=O)cc1
Response: 27.8

Request: Also need CC1=CC(C)C(C(=O)OCC(C)C)C(C(=O)OCC(C)C)C1 (centres undefined) , thanks.
Response: -22.4

Request: Record: O=S(=O)(O)C(I)S(=O)(=O)O
Response: -20

---

Reported growth inhibition by item:
- Protocol text: NCI Yeast Anticancer Drug Screen. Data for the cln2 rad14 strain (AID 165);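 also: 0% = growth equal to vehicle treated cultures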
- Condition details: S. cerevisiae cln2 rad14 strain, at 5.0 µM (retest, dose inferred, filed as 0.5), active compounds read high
This is part of a sample that, as a whole, favours compounds with a hit. Of some 79,000 tested, about 15% had one in any assay.
Could you give me the number in %? Just the number is fine.

CCCCNc1ccc(Nc2ccccc2)cc1 | 1
N#CC(c1ccccc1)c1cccc2ccccc12 (stereo not given) | -4
CN(C)c1ccc(/C=C\C(=O)c2ccccc2)cc1 | 13
COc1ccc(Nc2ccc3ccccc3c2)cc1 | -4
CC(C)C(C)(C)c1ccc(O)cc1 | 2
CC(CC=O)CC=O | 3
CC(=O)OC(C)C(=O)NCC(C)O (stereo not given) | -1
O=C(O)/C=C\C(=O)Nc1cccc2ccccc12 | -1

Request: Look up growth inhibition for this molecule: NN1CCOC(c2ccccc2)C1 (stereo not given)
Response: 0

Request: Similarly, Oc1ccc(Cc2ccccc2Cl)c(O)c1 ?
Response: 1

---

- Protocol text: NCI Yeast Anticancer Drug Screen. Data for the mlh1 rad18 strain (AID 175)
- Condition details: S. cerevisiae mlh1 rad18 strain growth inhibition, active compounds read high; at 50.0 µM unless noted
Compounds without any hit were thinned out: in the full panel of roughly 79,000, 15% have a hit.
This section presents compounds with their documented growth inhibition values.
// return numeric value only (unit: %, not printed)

Guide cases for growth inhibition, answers given:
COC(C(=O)Nc1ccc(C)cc1)(c1ccccc1)c1ccccc1 | 23.8
CCS(=O)(=O)CC(O)CS(=O)(=O)CC | -15.4
COc1ccc(C2=C(N)c3ncccc3C2=O)cc1 | -70.3

Request: // lookup growth inhibition for NC(=O)c1ncc(Cl)cc1Cl
Response: 25.1

Request: Quick one: NC1CCC[C@@H](O)[C@H]1O (stereo not given in full)
Response: -0.55

Request: Query O=C(Nc1ccc(Cl)cc1)C(Cl)C(Cl)c1ccc(Cl)cc1 (stereo not given) next
Response: -23.1

Request: Same question, CC1=C(C(=O)CC(=O)C(=O)Nc2ccc(Cl)cc2C)Sc2ccccc2N1 this time
Response: -22.6

Request: Query CCOC(=O)c1c[nH]c2c(Cl)c(Cl)ccc2c1=O next
Response: -6.95

Request: Let us now turn to NCC(=O)c1ccc(CCC(=O)O)cc1
Response: 2.6

Request: And for CC(=O)CCOC(=O)c1cc([N+](=O)[O-])cc([N+](=O)[O-])c1 ?
Response: 3

Request: Try this compound too: O=C(O)CSc1nc2ccccc2[nH]1
Response: 10

Request: // repeat for CCS(=O)(=O)/C=C/c1cccs1 and report
Response: -17.6

Request: Field entry: Cc1ccc(N(C)S(=O)(=O)c2ccccc2)cc1
Response: 4.55

Request: // next record CCCCN(CCCC)CC(C(=O)Nc1ccc([N+](=O)[O-])cc1[N+](=O)[O-])/C(C)=N\NC(=S)NN (stereo not given)
Response: 24.4

Request: Okay, and O=C(c1ccccc1)C1CC1C(=O)c1ccccc1 (stereo not given) ?
Response: -3.45

Request: Now try OCCCNCc1ccccn1 .
Response: -16.6

---

- Protocol text: NCI Yeast Anticancer Drug Screen. Data for the mec2-1 strain (AID 157)
- Condition details: S. cerevisiae mec2-1 strain, active compounds read high; at 50.0 µM unless noted
About 79,000 compounds went through this panel and 15% of them were active in at least one assay; those are over-represented in the sample as a whole.
Observed property: growth inhibition (%)
Express it in %; write the number only.

C[C@]12CCC(=O)C=C1CC[C@@H]1[C@@H]2C(=O)C[C@]2(C)/C(=C\C(=O)O)CC[C@@H]12 | -19.1
CCOC(=O)C(=CNC(=S)Nc1c(CC)cccc1CC)C(=O)OCC | -38.4
O=[N+]([O-])c1cc(COc2ccc(Cl)c(Cl)c2)ccc1Cl | 30.3
Nc1ncnc(N)c1NC(=O)c1cccnc1 | -6
CCCOC(=O)c1cccnc1 | -29.6

Request: Entry COc1cc2c(cc1OC)NC(=O)NC(Cc1ccc3c(c1)OCO3)CC2 (centres undefined) : reported growth inhibition = ?
Response: 10.8

Request: Follow-up entry: Oc1ccc(-c2c3ccccc3c(-c3ccc(O)cc3)c3ccccc23)cc1
Response: -9.6

Request: For CCC(O)c1ccc(OCc2ccccc2)c(OC)c1 (centres undefined) then?
Response: -2.1

Request: What do you get for O=C1CN(Cc2cccc(Cl)c2)CC(=O)N2Cc3ccccc3CN12 ?
Response: -1

Request: O=C(O)c1cccc(-c2ccccc2)c1O.O=C(O)c1cccc(-c2ccccc2)c1O.[Cu] ?
Response: 39.5

---

Measured growth inhibition accompanies every entry in the list below.
- Protocol text: NCI Yeast Anticancer Drug Screen. Data for the rad50 strain (AID 155);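 also: 0% = growth of vehicle-only cultures of the same strain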
- Condition details: S. cerevisiae rad50 strain growth inhibition, active compounds read high; at 50.0 µM unless noted
- Protocol: Growth inhibition of yeast strains with defined genetic alterations is measured as a screen for potential anti-cancer activity. Selected strains with alterations in DNA damage repair or cell cycle control were exposed to compounds and growth inhibition was measured relative to vehicle treated controls. The strain used in this assay is rad50
About 79,000 compounds went through this panel and 15% of them were active in at least one assay; those are over-represented in the sample as a whole.
// units = %; emit number, no label

Worked examples follow.
CC(C)(C)OC(=O)NNS(=O)(=O)CCC(NC(=O)OCc1ccccc1)C(=O)OCc1ccccc1 (stereo unspecified) | 46.7
CCCCCCN(CCCCCC)CC(O)c1cc(-c2ccc(Cl)cc2)nc2c(Cl)cccc12 (stereo unspecified) | -21.2
COc1ccc2nc3cc([N+](=O)[O-])ccc3c(NCCCN(CCO)CCO)c2c1 | -6.7

Request: I'd like to know its growth inhibition. The compound in question is CSC(SC)c1cc(C)no1
Response: -11.3

Request: Item: C=C(NC(=O)C(c1ccccc1)c1ccccc1)C(=O)O
Response: 21.6

Request: # iterate: OC(CN1CCCC2CCCCC21)c1cc2c(c3ccccc13)CCCC2 (stereo unspecified)
Response: 98.2

---

growth inhibition for assorted compounds
- Protocol text: NCI Yeast Anticancer Drug Screen. Data for the mec2-1 strain (AID 157)
- Condition details: S. cerevisiae mec2-1 strain, active compounds read high; at 50.0 µM unless noted
This is part of a sample that, as a whole, favours compounds with a hit. Of some 79,000 tested, about 15% had one in any assay.
Record the value in %, omitting the unit from your answer.

NC(=O)Nc1nc2ccccc2[nH]1 | -21.6
c1ccc(CNc2nnnc3ccccc23)cc1 | -1.45
CC1=N[C@@H](C(=O)NCC(N)=O)Cc2c1[nH]c1ccccc21 | 10.1
C/C(=N/O)c1ccncc1 | -3
O=P(O)(O)OP(=O)(O)O | -15.1

Request: Endpoint output: growth inhibition of Cc1ccc(S(=O)(=O)OC2C(OCc3ccccc3)OC(CO)C2O)cc1 (stereo not drawn) . Value?
Response: 6.65

Request: # repeat for CSc1ccc(NC(=O)c2ccc(Cl)cc2)cc1
Response: -6.05

Request: Thanks! And O=C1/C(=C/c2cccnc2)SC(=S)N1Cc1ccco1 ?
Response: -21.1

Request: How about O=C1CCC(=O)N1C(c1ccccc1)c1ccccc1 ?
Response: 6.95

Request: Record: CC(=O)Nc1cc(Cl)ccc1F
Response: -6.15

Request: Same lookup for Nc1ccc2c(C(F)(F)F)cc(=O)oc2c1 , please.
Response: -2.2

Request: Also COC(=O)[C@H](Cc1c[nH]c2ccccc12)NC(=O)OCC1OC(n2cc(C)c(=O)[nH]c2=O)CC1N=[N+]=[N-] (stereo partly drawn) , if possible.
Response: -20.4

Request: Consider next the compound O=C(C[n+]1csc2ccccc21)c1ccccc1 in the same way.
Response: 15.3

---

- Protocol text: NCI Yeast Anticancer Drug Screen. Data for the mlh1 rad18 strain (AID 175)
- Condition details: S. cerevisiae mlh1 rad18 strain growth inhibition, active compounds read high; at 50.0 µM unless noted
The panel holds about 79,000 compounds, 15% with a hit somewhere; the sample as a whole holds those more often.
Observed property: growth inhibition (%)
The response must be a number in % with no trailing unit.

Example compounds with recorded growth inhibition:
CSc1nnc(CCC(=O)Nc2cc(Cl)ccc2Cl)o1 | 9.05
COC1CCC2(C)C(CCC3C4CCC(OC(C)=O)C4(C)CCC32)O1 (stereo not given) | -14.8
CC1=C2CC(C)(C)CC(=O)C2(C)CCC1=O (stereo not given) | 27.8
CN(C)N=Nc1ccc(/C=C/C(=O)O)cc1 | -4.95
NN=C(c1ccc([N+](=O)[O-])cc1)c1ccc([N+](=O)[O-])cc1 | -0.7
CN(C)C(=O)Sc1cccc([N+](=O)[O-])c1 | -25.6

Request: Look at this compound and give its reported growth inhibition. CC(O)CCC(=O)c1nc2ccccc2s1 (stereo not given)
Response: 3.5

Request: Also, COc1cc2c[n+](C)c3c4cc(OC)c(OC)cc4c(OCc4ccccc4)cc3c2cc1OC please.
Response: 91.2

Request: One more compound: COC(=O)c1ccccc1OC
Response: 3.1

Request: Then what about the compound CCOC(=O)CC(C#N)(C#N)CC(=O)OCC ?
Response: -0.55

Request: Let us now turn to CCOC(=O)C(=CN1CCNC1=S)C(=O)OCC
Response: -3.85
